assay: Quantitative High-Throughput drug screen in 47 multiple myeloma cell lines against the NCATS MIPE library collection: KMS27_JCRB cell viability assay (AID 1918970); details: KMS27 myeloma cells, CellTiter-Glo ATP viability, 48 h; series mostly up to 45.8 µM;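 further: 100% = DMSO-only wells and 0% = media-only wells without cells; nearly all actives have a fitted effect of over 30% in size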
Records with an inconclusive call do not appear. Activity calls are given as the source filed them. The call rests on the fitted dose curve; in most records, active means well fitted cell-killing curve with a large enough effect; inconclusive means small, poorly fitted or top-dose-only effect, or effect the other way; inactive means no such curve, though single readings can be large or run the other way.
Select the correct class. Options are active, inactive and nothing else.

Query string: # outcome recorded in this test, key = `C[C@@H]1[C@H](O)[C@@H](C)C=CC=CCCC=CC=CC=CC=C[C@H](O[C@H]2O[C@@H](C)[C@H](O)[C@@H](N)[C@@H]2O)CC2O[C@](O)(C[C@@H](O)[C@H](O)CC[C@@H](O)C[C@@H](O)C[C@@H](O)CC(=O)O[C@H]1C)C[C@H](O)[C@H]2C(=O)O`
Result string: inactive

Query string: And `CCOC(=O)c1c(C(C#N)=CN)c2ccc(Cl)c(Cl)c2n1C` ?
Result string: inactive

###

assay: qHTS for Inhibitors of the Functional Ribonucleoprotein Complex (vRNP) of Lassa (LASV) Arenavirus: Viability assay - alamar blue signal for LASV Primary Screen (AID 1347083); details: cell viability, alamar blue fluorescence (LASV minigenome counter-screen); series mostly up to 57.5 µM; further: nearly all actives have a fitted effect of over 80% in size
Results filed as inconclusive are left out. The source made the active and inactive calls. Calls come from the whole dose curve; tested in HEK293 reporter line.
Assign a class; possible classes are class 1 for active, class 0 for inactive

Illustrative cases are given below, each with its answer.
{"sampleSmiles": "CC(=O)OCCN1C(=O)c2c(C)nc3ccc(S(=O)(=O)N4CCOCC4)cc3c2C1=O", "classLabel": "class 0"}
{"sampleSmiles": "CCOc1cc(C(=O)Nc2ccc(Cl)c(-c3nc4ccccc4[nH]3)c2)cc(OCC)c1OCC", "classLabel": "class 1"}

Query string: Any idea what this test logged for `CC(=O)NCCc1c[nH]c2ccccc12` ?
Result string: class 0

###

Each record here notes measured Potency.
assay: Immunotoxin (HA22) sensitization/mitigation study. Vehicle arm (PBS) (AID 1159510); conditions: cancer cells viability with PBS vehicle (HA22 study); series mostly up to 46.1 µM; further: potency means the concentration at half of the fitted maximal effect
Calls of active or inactive are those of the source. The rule behind the calls is not given here.

{"molecule": "COc1cc(Oc2ccnc3cc(OC)c(OC)cc23)ccc1NC(=O)NC(C)c1nccs1 (stereo not given)", "Potency": "16.6 µM (active)"}
{"molecule": "CCC(=O)N[C@H]1CC[C@H](C(=O)N(C)c2ccc(-c3nc4ccccc4o3)cc2)C1", "Potency": "7.43 µM (active)"}
{"molecule": "CCOc1cc(C(=O)Nc2ccc(Cl)c(-c3nc4ccccc4[nH]3)c2)cc(OCC)c1OCC", "Potency": "14.8 µM (active)"}
{"molecule": "Cc1[nH]nc2ccc(-c3cncc(OC[C@@H](N)Cc4ccccc4)c3)cc12", "Potency": "1.18 µM (active)"}

Query string: Could you share which Potency value was measured for `Cc1cc2c(F)c(Oc3ncnn4cc(OC[C@@H](C)O)c(C)c34)ccc2[nH]1` ?
Result string: 14.8 µM (active)

###

experiment: Cytotoxicity counterscreen for NFkB agonists and antagonists (AID 624476); settings: NFkB reporter cell line viability counterscreen; series mostly up to 46.1 µM;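 further: cells exposed to compound for 48 hours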
Records with an inconclusive call do not appear. The source made the active and inactive calls. Calls follow the shape of the dose curve; as a rule, active = well fitted curve in the direction sought with a large enough effect; inconclusive = small, poorly fitted or top-dose-only effect, or another doubt; inactive = no such curve, though single readings can be large or run the other way.
Select the matching outcome among active, inactive

{"compound": "CC1CC(C)C(=O)C(C(O)CC2CC(=O)NC(=O)C2)C1 (configuration not stated)", "classLabel": "inactive"}

Query string: Would you mind telling me which call this test gave `CO[C@H]1C=CC=C(C)C(=O)NC2=CC(=O)C(NCCN(C)C)=C(C[C@@H](C)C[C@H](OC)[C@@H](O)[C@@H](C)C=C(C)[C@@H]1OC(N)=O)C2=O` ?
Result string: active

Query string: Proceed to `Cc1cnc(Nc2ccc(F)cc2Cl)nc1-c1c[nH]c(C(=O)N[C@H](CO)c2cccc(Cl)c2)c1`
Result string: active

Query string: Another compound to look at: `CC(C)(C)c1[nH]cnc1C=c1[nH]c(=O)c(=Cc2ccccc2)[nH]c1=O`
Result string: active

Query string: How about CC[C@@H](C(=O)O)C1CC[C@H](C)C([C@@H](C)[C@H](O)[C@H](C)C(=O)[C@H](CC)C2O[C@]3(C=C[C@@H](O)[C@]4(CC[C@@](C)(C5CC[C@](O)(CC)[C@H](C)O5)O4)O3)[C@H](C)C[C@@H]2C)O1 (some centres not stated) ?
Result string: active

Query string: Next up: `COc1ccc2c(c[n+](C)c3c4cc5c(cc4ccc23)OCO5)c1OC`
Result string: active

Query string: Now consider `Cc1nc(-c2ccc(-c3ccc(C(=O)N4CCc5cc6c(cc54)C4(CCN(C)CC4)CO6)cc3)c(C)c2)no1` .
Result string: inactive
